Counter-ions that a name gives are not always drawn.
Below: a set of entries, each annotated with reported melting point.

{"columns": ["COMPOUND", "REPORTED"],
 "data": [
  ["Cc1cc(N)nc(CCCCNC(=O)c2ccc3c(c2)OCO3)c1.Cl [Example 23]", "176 to 178 °C"],
  ["Cc1cc(N)nc(CCCCNC/C=C/c2ccccc2)c1.O=C(O)/C=C/C(=O)O [Example 30]", "163 to 165 °C"],
  ["Cc1cc(N)nc(CCCCNC(=O)/C=C/c2ccc3c(c2)OCO3)c1.O=C(O)/C=C/C(=O)O [Example 31]", "111 to 113 °C"],
  ["COc1cc(C=CCNCCCCc2cc(C)cc(N)n2)ccc1O (as salt: hydrochloride) [Example 26]", "60 to 62 °C"],
  ["Cc1c(C)c2c(c(C)c1O)CCC(C)(C(=O)N1CCN(CCCCc3ccc(N)nc3)CC1)O2.Cl (centres unmarked)", "221 to 223 °C"]
]}

Prompt: Give its melting point value. Item: Cc1cc(N)nc(CCCCNC(=O)C2(C)CCc3c(C)c(O)c(C)c(C)c3O2)c1.O=C(O)/C=C/C(=O)O (centres unmarked)
Completion: 131 to 136 °C

Prompt: Looking for the measured melting point of Cc1cc(N)nc(CCCCNCc2ccc3c(c2)OCO3)c1.O=C(O)/C=C/C(=O)O [Example 29] , can you help?
Completion: 224 to 226 °C

Prompt: Request the reported melting point associated with Cc1c(C)c2c(c(C)c1O)CCC(C)(C(=O)N1CCN(CCC#Cc3ccc(N)nc3)CC1)O2.Cl (centres unmarked)
Completion: 210 to 212 °C
